Target: T1, His-tagged human HtrA1 protease domain (human, UniProt Q92743 161-367)
T1 construct: His-tagged protease domain; also called huHtrA1-PD-His; huHtrA1-PD
T1 sequence (Q92743 other isoform, or with tags, fused parts or gaps limits assumed): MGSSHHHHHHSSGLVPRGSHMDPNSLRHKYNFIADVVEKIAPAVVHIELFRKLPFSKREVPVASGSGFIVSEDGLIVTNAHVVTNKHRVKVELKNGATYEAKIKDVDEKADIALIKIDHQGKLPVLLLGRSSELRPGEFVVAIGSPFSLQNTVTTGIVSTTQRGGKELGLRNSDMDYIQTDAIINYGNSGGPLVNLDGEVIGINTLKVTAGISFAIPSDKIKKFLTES
Assay: SPR (BIACORE T200), huHtrA1-PD-His captured by anti-His, Fab injected
quantity kind: koff (s⁻¹)
Provide only the numeric value, understood in s⁻¹.

[[record]]
binder = "combination mutant LC7.HC5 Fab (Fab, V domains shown, Fab) VH: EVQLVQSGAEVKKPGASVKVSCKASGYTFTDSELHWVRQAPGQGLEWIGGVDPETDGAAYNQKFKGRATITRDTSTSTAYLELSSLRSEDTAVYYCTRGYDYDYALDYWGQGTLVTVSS VL: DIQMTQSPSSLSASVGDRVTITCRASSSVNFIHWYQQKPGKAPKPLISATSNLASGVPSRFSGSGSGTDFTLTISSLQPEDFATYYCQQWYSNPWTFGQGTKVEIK"
result_value = 0.000303

[[record]]
binder = "combination mutant LC4.HC2 Fab (Fab, V domains shown, Fab) VH: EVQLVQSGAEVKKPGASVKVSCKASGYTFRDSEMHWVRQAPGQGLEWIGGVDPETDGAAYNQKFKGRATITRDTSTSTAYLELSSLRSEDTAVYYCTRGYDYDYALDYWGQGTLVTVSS VL: DIQMTQSPSSLSASVGDRVTITCRASSSVNFIHWYQQKPGKAPKPLISATSHLASGVPSRFSGSGSGTDFTLTISSLQPEDFATYYCQQWSSNPWTFGQGTKVEIK"
result_value = 0.000222


Next item in the queue.
I would be grateful if you could share the reported koff for combination mutant LC5.HC2 Fab (Fab, V domains shown, Fab) VH: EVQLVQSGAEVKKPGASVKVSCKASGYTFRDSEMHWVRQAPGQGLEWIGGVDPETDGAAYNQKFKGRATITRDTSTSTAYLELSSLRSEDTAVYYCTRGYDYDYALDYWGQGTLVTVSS VL: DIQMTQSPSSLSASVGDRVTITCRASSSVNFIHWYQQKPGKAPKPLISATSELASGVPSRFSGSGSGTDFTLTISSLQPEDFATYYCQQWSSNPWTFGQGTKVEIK .
0.000211
